# ASSAY_TARGET: Phosphatidylinositol 4,5-bisphosphate 3-kinase catalytic subunit alpha isoform (Homo sapiens)
# Sequence (P42336 whole entry, canonical isoform): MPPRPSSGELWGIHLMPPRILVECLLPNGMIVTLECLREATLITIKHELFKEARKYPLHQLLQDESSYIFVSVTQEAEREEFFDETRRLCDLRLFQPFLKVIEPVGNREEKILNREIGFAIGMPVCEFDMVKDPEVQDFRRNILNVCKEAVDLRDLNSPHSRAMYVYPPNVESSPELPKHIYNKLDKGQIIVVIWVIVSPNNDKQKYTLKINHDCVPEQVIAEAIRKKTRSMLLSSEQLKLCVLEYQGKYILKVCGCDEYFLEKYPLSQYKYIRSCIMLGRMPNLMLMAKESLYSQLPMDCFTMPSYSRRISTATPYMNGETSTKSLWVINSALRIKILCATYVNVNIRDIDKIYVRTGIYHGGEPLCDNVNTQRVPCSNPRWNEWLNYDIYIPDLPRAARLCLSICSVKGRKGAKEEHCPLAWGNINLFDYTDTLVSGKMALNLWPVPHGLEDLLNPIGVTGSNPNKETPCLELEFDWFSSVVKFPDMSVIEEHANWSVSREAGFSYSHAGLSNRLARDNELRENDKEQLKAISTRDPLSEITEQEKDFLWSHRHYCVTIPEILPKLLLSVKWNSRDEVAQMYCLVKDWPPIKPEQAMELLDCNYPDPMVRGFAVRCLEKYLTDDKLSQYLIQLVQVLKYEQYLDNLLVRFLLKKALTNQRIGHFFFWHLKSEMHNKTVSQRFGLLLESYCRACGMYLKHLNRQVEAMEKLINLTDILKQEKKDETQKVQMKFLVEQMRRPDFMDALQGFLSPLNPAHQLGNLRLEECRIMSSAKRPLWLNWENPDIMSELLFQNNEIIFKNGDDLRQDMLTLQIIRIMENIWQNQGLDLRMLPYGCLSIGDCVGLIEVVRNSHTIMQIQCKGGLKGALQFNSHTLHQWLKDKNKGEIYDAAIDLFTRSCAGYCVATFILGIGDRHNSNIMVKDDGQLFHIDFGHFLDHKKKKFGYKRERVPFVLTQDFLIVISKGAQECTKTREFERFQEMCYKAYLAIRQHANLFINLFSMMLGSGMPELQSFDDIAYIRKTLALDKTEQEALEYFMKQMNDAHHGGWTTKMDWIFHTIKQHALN
RESULT_TYPE: Ki

{"SMILES": "CC(C)n1nc(-c2ccc3oc(N)nc3c2)c2c(=O)[nH]c(N(C)C)nc21", "TEST_VALUE": "> 10 µM"}
{"SMILES": "CC(C)n1nc(-c2ccc3oc(N)nc3c2)c2c(C(F)(F)F)nc(N)nc21", "TEST_VALUE": "> 10 µM"}
{"SMILES": "CC(C)n1nc(-c2ccc3oc(N)nc3c2)c2c(CO)nc(N)nc21", "TEST_VALUE": "> 10 µM"}

###

# ASSAY_TARGET: Phosphatidylinositol 4,5-bisphosphate 3-kinase catalytic subunit alpha isoform (Homo sapiens)

{"SMILES": "Cc1nc2c(c(-c3ccc4oc(N)nc4c3)nn2C(C)C)c(=O)[nH]1", "Ki": "> 10 µM"}
{"SMILES": "CC(C)n1nc(-c2ccc3oc(N)nc3c2)c2c(=O)[nH]cnc21", "Ki": "> 10 µM"}
{"SMILES": "CC(C)n1nc(-c2ccc3oc(N)nc3c2)c2c(C#N)nc(N)nc21", "Ki": "> 10 µM"}
{"SMILES": "CNc1nc2c(c(-c3ccc4oc(N)nc4c3)nn2C(C)C)c(=O)[nH]1", "Ki": "> 10 µM"}
